Target: T1, human GPC3-His protein (human, UniProt P51654 25-559)
T1 construct: also called human GPC3 protein; not shown: His tag
Assay: SPR, antibody captured on Protein A chip, human GPC3-His analyte;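 note: measured at 25 °C flow cell, human GPC3-His injected at five concentrations up to 200 nM, 240 s association, up to 600 s dissociation, double-referenced, fitted to Langmuir 1:1 model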
Classify as follows. Reported koff greater than or equal to 0.0006 s⁻¹: TRUE. Reported koff below: FALSE.

binder: F1.110.24 (antibody, human IgG1, kappa, V domains shown, Human-murine chimeric antibody) VH: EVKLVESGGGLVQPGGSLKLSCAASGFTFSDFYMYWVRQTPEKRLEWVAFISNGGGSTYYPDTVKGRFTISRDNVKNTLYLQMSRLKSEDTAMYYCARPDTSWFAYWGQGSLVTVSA VL: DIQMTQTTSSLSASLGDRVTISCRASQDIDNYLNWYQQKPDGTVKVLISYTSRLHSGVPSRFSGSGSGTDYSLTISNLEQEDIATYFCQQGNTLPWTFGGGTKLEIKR
class: FALSE

binder: F2.23.8 (antibody, human IgG1, kappa, V domains shown, Human-murine chimeric antibody) VH: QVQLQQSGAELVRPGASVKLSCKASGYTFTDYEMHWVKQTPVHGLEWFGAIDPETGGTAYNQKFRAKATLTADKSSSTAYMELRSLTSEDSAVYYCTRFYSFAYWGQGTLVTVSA VL: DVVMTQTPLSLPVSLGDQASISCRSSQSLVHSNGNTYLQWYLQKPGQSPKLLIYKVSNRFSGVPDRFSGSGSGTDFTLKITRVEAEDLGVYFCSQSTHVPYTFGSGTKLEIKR
class: TRUE

binder: F1.118.4 (antibody, human IgG1, kappa, V domains shown, Human-murine chimeric antibody) VH: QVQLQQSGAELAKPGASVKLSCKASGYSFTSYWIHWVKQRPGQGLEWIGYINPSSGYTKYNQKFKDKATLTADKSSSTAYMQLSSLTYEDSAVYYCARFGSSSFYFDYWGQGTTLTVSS VL: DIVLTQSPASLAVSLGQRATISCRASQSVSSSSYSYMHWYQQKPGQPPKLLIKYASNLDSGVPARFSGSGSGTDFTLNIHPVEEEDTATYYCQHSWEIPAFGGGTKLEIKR
class: FALSE

binder: F1.120.16 (antibody, human IgG1, kappa, V domains shown, Human-murine chimeric antibody) VH: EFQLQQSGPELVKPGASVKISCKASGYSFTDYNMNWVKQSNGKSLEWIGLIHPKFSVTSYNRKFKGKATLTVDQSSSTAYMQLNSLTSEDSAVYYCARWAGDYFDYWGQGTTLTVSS VL: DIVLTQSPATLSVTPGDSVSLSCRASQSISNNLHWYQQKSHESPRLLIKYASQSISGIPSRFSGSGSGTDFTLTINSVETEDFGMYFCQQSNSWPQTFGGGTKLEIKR
class: TRUE

input: Test whether the binder F1.111.11 (antibody, human IgG1, kappa, V domains shown, Human-murine chimeric antibody) VH: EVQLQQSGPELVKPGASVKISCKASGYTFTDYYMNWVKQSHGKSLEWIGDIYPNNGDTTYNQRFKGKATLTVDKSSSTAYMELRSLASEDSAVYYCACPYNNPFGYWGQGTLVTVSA VL: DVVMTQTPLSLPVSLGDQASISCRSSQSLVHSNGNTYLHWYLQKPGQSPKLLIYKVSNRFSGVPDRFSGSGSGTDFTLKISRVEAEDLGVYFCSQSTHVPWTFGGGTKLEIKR records koff of 0.0006 s⁻¹ or higher.
output: FALSE
